FYI, the data here is from paper PMC6171417.

- target_of_assay: hCA IX (Homo sapiens, UniProt Q16790)
- Construct: gene CA9; recombinant, obtained in-house as reported earlier
- assay_comment: stopped-flow CO2 hydrase assay
- Type: biochemical
outcome_measure: log10 Ki (log10 of the value in nM)

1. N#Cc1c(-c2ccccc2Cl)nc2c(nnn2-c2ccc(S(N)(=O)=O)cc2)c1N 2.61
2. Nc1nc(=S)[nH]c2c1nnn2-c1ccc(S(N)(=O)=O)cc1 2.43
3. N#Cc1nnn(-c2ccc(S(N)(=O)=O)cc2)c1N 2.07
4. N#Cc1c(N)c2nnn(-c3ccc(S(N)(=O)=O)cc3)c2[nH]c1=O 2.46
5. N=c1c2nnn(-c3ccc(S(N)(=O)=O)cc3)c2[nH]c(=O)n1-c1ccccc1 2.20
6. N#Cc1c(-c2ccc(Cl)cc2)nc2c(nnn2-c2ccc(S(N)(=O)=O)cc2)c1N 1.63
7. N#Cc1c(-c2ccccc2)nc2c(nnn2-c2ccc(S(N)(=O)=O)cc2)c1N 1.67
8. N#Cc1nnn(-c2ccc(S(N)(=O)=O)cc2)c1/N=C/c1ccc(Cl)cc1 2.49
9. N#Cc1nnn(-c2ccc(S(N)(=O)=O)cc2)c1NC(=O)CCl 2.66
10. Nc1c(C2=NCCN2)nnn1-c1ccc(S(N)(=O)=O)cc1 3.57
11. Cc1ccc(S(=O)(=O)Nc2c(C#N)nnn2-c2ccc(S(N)(=O)=O)cc2)cc1 2.02
12. N#Cc1nnn(-c2ccc(S(N)(=O)=O)cc2)c1NCC(=O)c1ccccc1 2.45
13. CCn1c(=S)[nH]c2c(nnn2-c2ccc(S(N)(=O)=O)cc2)c1=N 2.38
14. CC(=O)CC(=O)Nc1c(C#N)nnn1-c1ccc(S(N)(=O)=O)cc1 2.61
15. N#Cc1nnn(-c2ccc(S(N)(=O)=O)cc2)c1NS(=O)(=O)c1ccccc1 2.16
